This section presents molecules with their documented Inhibition at 100 μM values.
Tested on: Botrytis cinerea (B05.10)
MEASUREMENT NOTES: Resazurin antifungal assay of 180 alpha-factor peptide variants towards Botrytis (Example 2)
Type: cell-based
CONDITIONS: % inhibition of fungal growth, Botrytis conidia, peptide 100 μM, resazurin
Peptide text beside a SMILES is read from it.
Give the value; after it, write the unit.

# MOLECULE, ASSAYED SYSTEM, RESULT
data = [
    ("CC[C@H](C)[C@H](NC(=O)[C@H](CCC(N)=O)NC(=O)[C@@H](NC(=O)[C@H](Cc1c[nH]c2ccccc12)NC(=O)[C@H](Cc1c[nH]cn1)NC(=O)[C@@H]1CCCN1)C(C)C)C(=O)N[C@@H](CCCCN)C(=O)N[C@@H](CC(C)C)C(=O)NCC(=O)N[C@@H](CCC(N)=O)C(=O)N1CCC[C@H]1C(=O)N[C@@H](CCSC)C(=O)N[C@@H](Cc1ccc(O)cc1)C(=O)O [compound 10] (H-PHWVQIKLGQPMY-OH; N-terminus and C-terminus assumed)", "Botrytis cinerea (B05.10)", "100%"),
]

Query: Quick one: give measured Inhibition at 100 μM for CSCC[C@H](NC(=O)[C@@H]1CCCN1C(=O)[C@H](CCSC)NC(=O)CNC(=O)[C@@H](NC(=O)[C@H](CCCCN)NC(=O)[C@H](CC(C)C)NC(=O)[C@H](CCC(=O)O)NC(=O)[C@H](CC(C)C)NC(=O)[C@H](Cc1c[nH]c2ccccc12)NC(=O)[C@H](CS)NC(=O)[C@@H](N)CCCCN)[C@@H](C)O)C(=O)N[C@@H](Cc1ccc(O)cc1)C(=O)O [compound 35] (H-KCWLELKTGMPMY-OH; N-terminus and C-terminus assumed)
Reply: 97.61%
